# System name: Sodium-dependent serotonin transporter (Rattus norvegicus, UniProt P31652)
# Sequence (P31652 whole entry): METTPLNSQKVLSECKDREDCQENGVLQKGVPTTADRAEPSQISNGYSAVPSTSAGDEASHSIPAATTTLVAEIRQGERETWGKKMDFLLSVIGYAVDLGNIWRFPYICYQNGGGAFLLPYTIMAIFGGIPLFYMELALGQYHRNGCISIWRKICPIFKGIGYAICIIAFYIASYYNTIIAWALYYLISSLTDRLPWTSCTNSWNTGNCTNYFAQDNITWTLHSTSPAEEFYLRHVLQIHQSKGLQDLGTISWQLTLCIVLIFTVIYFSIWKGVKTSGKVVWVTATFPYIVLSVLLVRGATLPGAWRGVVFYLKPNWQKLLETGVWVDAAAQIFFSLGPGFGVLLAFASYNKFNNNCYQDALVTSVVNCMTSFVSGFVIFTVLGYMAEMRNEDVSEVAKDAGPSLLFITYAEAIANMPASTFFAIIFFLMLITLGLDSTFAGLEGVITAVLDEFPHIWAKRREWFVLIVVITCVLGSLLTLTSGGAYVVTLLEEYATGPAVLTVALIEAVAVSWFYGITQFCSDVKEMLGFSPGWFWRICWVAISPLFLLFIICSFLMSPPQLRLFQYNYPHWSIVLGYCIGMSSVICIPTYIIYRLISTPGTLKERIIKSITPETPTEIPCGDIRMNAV
# Run description: Displacement of [3H]citalopram from rat cortical serotonin transporter (SERT)
Readout name: log10(Ki) (log10 of the value in nM)

Molecular string	log10(Ki)
O=[N+]([O-])c1ccc2nc(N3CCNCC3)cc(I)c2c1	0.24
O=[N+]([O-])c1ccc2nc(N3CCNCC3)cc(Cc3ccccc3)c2c1	2.10
CN(C)Cc1ccccc1Sc1ccc(I)cc1N	-1.89
O=[N+]([O-])c1ccc2nc(N3CCNCC3)cc(Br)c2c1	-0.43
O=[N+]([O-])c1ccc2nc(N3CCNCC3)cc(N3CCCC3)c2c1	1.79
